# test-name: Primary qHTS for small molecule stabilizers of the endoplasmic reticulum resident proteome: Secreted ER Calcium Modulated Protein (SERCaMP) assay (AID 1508630)
# assay-conditions: SH-SY5Y GLuc-SERCaMP (Gaussia luciferase released on ER calcium loss) secretion, thapsigargin, luminescence; series mostly up to 38.4 µM
Inconclusive results are not listed. Calls of active or inactive are those of the source. Calls follow the shape of the dose curve; as a rule, active = well fitted inhibition curve with a large enough effect; inconclusive = small, poorly fitted or top-dose-only effect; inactive = no such curve, though single readings can be large or run the other way.

compound: C=CCON=C(C[C@H]1O[C@@H]2O[C@]3(C)CC[C@@H]4[C@H](C)CC[C@@H]([C@H]1C)[C@@]24OO3)[C@H]1O[C@@H]2O[C@]3(C)CC[C@H]4[C@H](C)CC[C@@H]([C@@H]1C)[C@@]24OO3
outcome: inactive

compound: c1cc2c(cc1[C@H]1OC[C@H]3[C@H]1CO[C@H]3c1ccc3c(c1)OCO3)OCO2
outcome: inactive

compound: COc1ccc(CC2NCCc3cc(OC)c(OC)cc32)cc1OC (stereo not drawn)
outcome: inactive

compound: CCOP(=O)(OCC)C(C)NC(=O)N(CCCl)N=O (stereo not drawn)
outcome: inactive

compound: NCc1cc(=O)[nH]o1
outcome: inactive

compound: CC=C(C)C(=O)N[C@@H](c1ccccc1)[C@@H](O)C(=O)O[C@H]1C[C@@]2(O)[C@@H](OC(=O)c3ccccc3)[C@@H]3[C@]4(OC(C)=O)CO[C@@H]4C[C@H](O)[C@@]3(C)C(=O)[C@H](OC(C)=O)C(=C1C)C2(C)C
outcome: inactive

compound: CC(C)NC(C)Cc1ccc(I)cc1 (stereo not drawn)
outcome: inactive

compound: Clc1cnc(Oc2ccc(Oc3ncc(Cl)cc3Cl)cc2)c(Cl)c1
outcome: inactive

compound: NCCc1c[nH]c2ccc(O)cc12
outcome: inactive

compound: CC(Cc1ccc(O)cc1)NCC(O)c1cc(O)cc(O)c1 (stereo not drawn)
outcome: inactive

compound: CC(=Cc1csc(C)n1)[C@@H]1C[C@H]2O[C@@H]2CCC[C@H](C)[C@@H](O)[C@@H](C)C(=O)C(C)(C)[C@@H](O)CC(=O)O1
outcome: inactive

compound: CO/C=C(/C(=O)OC)c1ccccc1Oc1cc(Oc2ccccc2C#N)ncn1
outcome: inactive

compound: CCCN(CCC)c1c([N+](=O)[O-])cc(S(N)(=O)=O)cc1[N+](=O)[O-]
outcome: inactive

compound: Cc1[nH]nc2ccc(-c3cncc(OC[C@@H](N)Cc4c[nH]c5ccccc45)c3)cc12
outcome: inactive

compound: CC(N[C@H]1C[C@H]1c1ccccc1)c1ccc2c(c1)OCCO2 (stereo partly drawn)
outcome: inactive

compound: Cc1cc(O)ccc1Cl
outcome: inactive

compound: O=C(Nc1ccccc1-c1ccc(Cl)cc1)c1cccnc1Cl
outcome: inactive

compound: CCCCCCCCCCCCCCCC[N+](C)(C)C
outcome: inactive

compound: C[C@@H]1O[C@H](C[N+](C)(C)C)C[C@H]1O
outcome: inactive

compound: O=C(O)CNC(=O)c1c(O)c2ccccc2n(Cc2ccccc2)c1=O
outcome: inactive

compound: C[C@]12CCC(=O)C(O)=C1CC[C@@H]1[C@H]3CCC(=O)[C@@]3(C)CC[C@@H]12
outcome: inactive

compound: COC(=O)[C@@H](N)CCCN=C(N)N[N+](=O)[O-]
outcome: inactive

compound: CCO/N=C(\CC)C1=C(O)CC(c2c(C)cc(C)cc2C)CC1=O (stereo not drawn)
outcome: inactive

compound: CCN1CCN(C(=O)Cc2ccc(Nc3ncc(F)c(Nc4ccc(C(=O)Nc5ccccc5Cl)cc4)n3)cc2)CC1
outcome: inactive

compound: Fc1cc(Br)ccc1CBr
outcome: inactive

compound: COC(=O)c1cncn1C(C)c1ccccc1 (stereo not drawn)
outcome: inactive

compound: CC1(C)CC/C(=C/c2ccc(Cl)cc2)C1(O)Cn1cncn1 (stereo not drawn)
outcome: inactive

compound: O=C(O)COc1ccccc1
outcome: inactive

compound: O=C(Cc1ccc(Cl)c(Cl)c1)N1CCCCC1CN1CCCC1 (stereo not drawn)
outcome: inactive

compound: CC[C@@H]1[C@@H](C)O[C@@](O)([C@@H](C)[C@H](O)[C@H](C)[C@H]2OC(=O)C=CC=C[C@@H](C)[C@@H]([C@@H](C)[C@@H](O)[C@H](C)[C@@]3(O)C[C@H](O[C@H]4C[C@H](O)[C@H](O)[C@H](C)O4)[C@H](CC)[C@@H](C)O3)OC(=O)C=CC=C[C@@H]2C)C[C@H]1O[C@H]1C[C@H](O)[C@H](O)[C@H](C)O1
outcome: inactive

compound: O=[N+]([O-])/N=C1\NCCN1Cc1ccc(Cl)nc1
outcome: inactive

compound: CC(=Cc1csc(C)n1)[C@@H]1C[C@H]2O[C@]2(C)CCC[C@H](C)[C@@H](O)[C@@H](C)C(=O)C(C)(C)[C@@H](O)CC(=O)O1
outcome: inactive

compound: CC(C)[C@H]1C(=O)N[C@H](CO)Cc2c[nH]c3cccc(c23)N1C
outcome: inactive

compound: C=C[C@@H]1CN2CCC1C[C@@H]2[C@@H](O)c1ccnc2ccccc12 (stereo partly drawn)
outcome: inactive

compound: NC1CC1c1ccccc1 (stereo not drawn)
outcome: inactive

compound: CC=C(C)C(=O)O[C@H]1C(C)=C2[C@@H]3OC(=O)[C@@](C)(O)[C@@]3(O)[C@@H](OC(=O)CCC)C[C@](C)(OC(C)=O)[C@@H]2[C@@H]1OC(=O)CCCCCCC
outcome: inactive

compound: O=[N+]([O-])c1ccc([As](=O)(O)O)cc1
outcome: inactive

compound: S=C(NC1CCCCC1)N1CCC(c2cnc[nH]2)CC1
outcome: inactive
